A collection of compounds and their measured pEC50
- Tested on: drug-resistant HIV-1 in PBMC
- testDetails: microbe, parasite or virus in culture
- Type: cell-based
- experimentalConditions: Human immunodeficiency virus 1, PBMC, parent strain HIV-1 (xxLAI), row HIV-1 (D67N/K70R/T215Y/K219Q); PBMC; read-out: Untreated EC50
pEC50: −log10 of the molar value.
measuredParameter: pEC50

>>> experimentalvalue("Cc1cn([C@H]2C[C@H](N=[N+]=[N-])[C@@H](CO)O2)c(=O)[nH]c1=O [AZT, 3′-azido-3′-deoxythymidine]")
8.40
>>> experimentalvalue("[N-]=[N+]=N[C@H]1C[C@H](n2ccc(=O)[nH]c2=O)O[C@@H]1CO [CS-87, 3′-Azido-2′,3′-dideoxyuridine]")
5.96

###

- Tested on: drug-resistant HIV-1 in HeLa HT4-6C
- testDetails: microbe, parasite or virus in culture
- Format: cell-based
- experimentalConditions: Human immunodeficiency virus 1, HeLa, clinical isolate (pre) prior to long-term ZDV monotherapy, row HIV-1 (A018C), read-out: Untreated EC50
pEC50: −log10 of the molar value.
measuredParameter: pEC50

>>> experimentalvalue("Cc1cn([C@H]2C[C@H](N=[N+]=[N-])[C@@H](CO)O2)c(=O)[nH]c1=O")
8.00
>>> experimentalvalue("[N-]=[N+]=N[C@H]1C[C@H](n2ccc(=O)[nH]c2=O)O[C@@H]1CO")
6.00

###

A collection of compounds and their measured pEC50
- Tested on: drug-resistant HIV-1 in PBMC
- testDetails: microbe, parasite or virus in culture
- Assay type: cell-based
- experimentalConditions: Human immunodeficiency virus 1, PBMC, parent strain HIV-1 (xxLAI), row HIV-1 (M184V); PBMC; read-out: Untreated EC50
pEC50: −log10 of the molar value.
measuredParameter: pEC50

>>> experimentalvalue("Cc1cn([C@H]2C[C@H](N=[N+]=[N-])[C@@H](CO)O2)c(=O)[nH]c1=O [AZT, 3′-azido-3′-deoxythymidine]")
8.40
>>> experimentalvalue("[N-]=[N+]=N[C@H]1C[C@H](n2ccc(=O)[nH]c2=O)O[C@@H]1CO [CS-87, 3′-Azido-2′,3′-dideoxyuridine]")
5.96

###

- Test system: drug-resistant HIV-1 in HeLa HT4-6C
- testDetails: microbe, parasite or virus in culture
- Assay type: cell-based
- experimentalConditions: Human immunodeficiency virus 1, HeLa, clinical isolate (pre) prior to long-term ZDV monotherapy, row HIV-1 (P022C), read-out: Untreated EC50
A collection of compounds and their measured EC50
measuredParameter: EC50

>>> experimentalvalue("Cc1cn([C@H]2C[C@H](N=[N+]=[N-])[C@@H](CO)O2)c(=O)[nH]c1=O")
"30 nM"
>>> experimentalvalue("[N-]=[N+]=N[C@H]1C[C@H](n2ccc(=O)[nH]c2=O)O[C@@H]1CO")
"400 nM"

###

- System: mutant strains of HIV-1
- testDetails: microbe, parasite or virus in culture
- Assay type: cell-based
- experimentalConditions: Human immunodeficiency virus 1, PBMC, K65R Pitt.; human PBM cells
measuredParameter: EC50 (nM)

>>> experimentalvalue("[N-]=[N+]=N[C@H]1C[C@H](n2ccc(=O)[nH]c2=O)O[C@@H]1CO")
1100
